Hey, just so you know, these numbers are from patent US7696248B2.

- system_name: cloned human glucagon receptor (Homo sapiens, UniProt P47871)
- Sequence (P47871 26-477): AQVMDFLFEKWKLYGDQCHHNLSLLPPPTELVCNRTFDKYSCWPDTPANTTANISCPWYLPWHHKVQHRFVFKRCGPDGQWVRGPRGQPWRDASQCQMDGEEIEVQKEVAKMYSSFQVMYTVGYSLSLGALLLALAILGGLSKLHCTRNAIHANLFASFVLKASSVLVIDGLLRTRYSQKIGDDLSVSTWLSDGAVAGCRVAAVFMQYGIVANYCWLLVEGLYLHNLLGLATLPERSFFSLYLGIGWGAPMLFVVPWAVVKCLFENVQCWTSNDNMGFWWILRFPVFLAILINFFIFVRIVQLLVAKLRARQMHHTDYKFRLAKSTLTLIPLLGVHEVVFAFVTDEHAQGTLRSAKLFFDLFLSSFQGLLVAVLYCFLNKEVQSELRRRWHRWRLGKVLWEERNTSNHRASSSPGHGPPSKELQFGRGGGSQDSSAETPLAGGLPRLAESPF
experimental_endpoint: Ki (nM)
Numeric answer only, unit nM assumed.

Would you kindly share the measured Ki for CCCCCC(Nc1ccc(-c2ccc(C#N)cc2)cc1)c1ccc(C(=O)NCCC(=O)O)cc1 (stereo not shown) ?
173
